Data origin, for the record: PubChem BioAssay AID2549

target: ATP-dependent DNA helicase Q1 (Homo sapiens) (UniProt P46063); assay: qHTS Assay for Inhibitors of RecQ-Like Dna Helicase 1 (RECQ1); settings: RECQ1 DNA unwinding, red fluorescence kinetic read; series mostly up to 57.3 µM; also: nearly all actives have a fitted effect of over 30% in size
Sequence (P46063 whole entry, looked up): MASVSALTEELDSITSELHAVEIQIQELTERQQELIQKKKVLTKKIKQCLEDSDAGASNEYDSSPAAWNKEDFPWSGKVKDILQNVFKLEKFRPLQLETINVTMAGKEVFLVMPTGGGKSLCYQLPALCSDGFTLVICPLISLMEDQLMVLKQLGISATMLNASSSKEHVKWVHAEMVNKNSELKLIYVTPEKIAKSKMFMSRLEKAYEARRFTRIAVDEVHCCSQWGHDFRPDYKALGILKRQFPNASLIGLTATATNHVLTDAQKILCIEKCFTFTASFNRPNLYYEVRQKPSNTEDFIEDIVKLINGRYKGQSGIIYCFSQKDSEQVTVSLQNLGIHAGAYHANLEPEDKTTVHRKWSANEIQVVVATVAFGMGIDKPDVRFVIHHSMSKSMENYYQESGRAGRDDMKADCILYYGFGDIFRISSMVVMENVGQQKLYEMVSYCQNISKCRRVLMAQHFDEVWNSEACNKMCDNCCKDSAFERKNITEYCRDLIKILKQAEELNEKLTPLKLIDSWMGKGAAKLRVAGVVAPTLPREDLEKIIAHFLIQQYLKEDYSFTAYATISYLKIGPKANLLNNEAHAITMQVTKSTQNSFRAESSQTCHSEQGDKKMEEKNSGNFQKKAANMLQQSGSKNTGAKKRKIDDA
Out of some 240,000 compounds screened, about 1,300 (0.54%) were called active. Inconclusive results (about 1%) are left out. Calls follow the shape of the dose curve; as a rule, active = well fitted inhibition curve with a large enough effect; inconclusive = small, poorly fitted or top-dose-only effect; inactive = flat fitted curve, though single readings scatter. Many of the other results were omitted from the sample, so actives are more common in it than they were.
Labels: yes = active, no = inactive

[[record]]
molecule = "O=C(Nc1nnc(SCc2ccccc2)s1)c1ccco1"
class_assignment = "no"

[[record]]
molecule = "CC(C)(C)N(Cc1ccccc1)C(=O)COC(=O)CCc1c[nH]c2ccccc12"
class_assignment = "no"

[[record]]
molecule = "Clc1ccccc1CSc1nnc(-c2ccco2)c(-c2ccco2)n1"
class_assignment = "yes"

[[record]]
molecule = "C=CCNC(=S)NNC(=O)c1cc(Cl)ccc1OC"
class_assignment = "no"

[[record]]
molecule = "COc1ccc(CNC(=O)C(Cc2ccccc2)n2cccc2)cc1 (stereo unspecified)"
class_assignment = "no"

[[record]]
molecule = "CCCOc1ccc(NC(=O)CC2C(=O)N(C)C(=S)N2Cc2ccc3c(c2)OCO3)cc1 (stereo unspecified)"
class_assignment = "no"

[[record]]
molecule = "COc1ccc(C2CC(O)(c3ccccc3)Oc3cc(C)cc(C)c32)cc1 (stereo unspecified)"
class_assignment = "no"

[[record]]
molecule = "Cc1ccc(C)n1C(Cc1ccccc1)C(=O)O (stereo unspecified)"
class_assignment = "yes"

[[record]]
molecule = "COC(OC)c1ccnc(SCc2ccccc2Cl)n1"
class_assignment = "no"

[[record]]
molecule = "COc1ccc(Cl)cc1C(=O)NNC(=S)NC1CCCC1"
class_assignment = "no"

[[record]]
molecule = "C=C1/C(=C\\C=C2\\CCCC3(C)C2CCC3C(C)/C=C/C(O)C2CC2)CC(O)CC1O (stereo unspecified)"
class_assignment = "no"


----------
biological target: ATP-dependent DNA helicase Q1 (Homo sapiens); assay: qHTS Assay for Inhibitors of RecQ-Like Dna Helicase 1 (RECQ1); conditions: RECQ1 DNA unwinding, red fluorescence kinetic read; series mostly up to 57.3 µM; also: nearly all actives have a fitted effect of over 30% in size
Screen size: about 240,000 compounds; about 1,300 (0.54%) were called active. Roughly 1% stayed inconclusive and do not appear here. The call rests on the fitted dose curve; in most records, active means well fitted inhibition curve with a large enough effect; inconclusive means small, poorly fitted or top-dose-only effect; inactive means flat fitted curve, though single readings scatter. This is one part of a sample in which actives are shown more often than they occur.
Labels: TRUE (active), FALSE (inactive)

[[record]]
compound = "Cc1cccc(N=C2NC(=O)/C(=C/c3cn(C)c4ccccc34)S2)c1"
class_assignment = "FALSE"

[[record]]
compound = "Cc1ccc(CNC(=O)C2(C(F)(F)F)C/C(=C\\CCO)CCCO2)o1 (centres undefined)"
class_assignment = "FALSE"

[[record]]
compound = "Cc1cc(=O)[nH]c(S)c1C#N"
class_assignment = "TRUE"

[[record]]
compound = "Cc1cc(=O)[nH]c(SCC(N)=O)c1C#N"
class_assignment = "FALSE"

[[record]]
compound = "N#C/C(=C\\c1ccc(O)c(O)c1)C(N)=O"
class_assignment = "FALSE"

[[record]]
compound = "Cc1cc(=O)[nH]c(=S)[nH]1"
class_assignment = "FALSE"

[[record]]
compound = "CC(C)=CCC[C@]1(C)[C@@H](CC=C(C)C)C[C@@]2(CC=C(C)C)C(=O)[C@]1(C(=O)C(C)C)C(=O)C(CC=C(C)C)=C2O"
class_assignment = "FALSE"

[[record]]
compound = "Cc1ccccc1-c1nnc(SCC(=O)NCc2ccc3c(c2)OCO3)n1C"
class_assignment = "FALSE"

[[record]]
compound = "Cc1ccc(N=C2NC(=O)/C(=C/C=C/c3ccco3)S2)cc1C"
class_assignment = "TRUE"

[[record]]
compound = "CN(C)c1ccc(-n2cccc2/C=C2/SC(=Nc3ccc(F)cc3)NC2=O)cc1"
class_assignment = "FALSE"

[[record]]
compound = "O=C(Nc1cc(C(=O)Nc2ccc(S(=O)(=O)O)cc2)cc(C(=O)Nc2ccc(S(=O)(=O)O)cc2)c1)Nc1cc(C(=O)Nc2ccc(S(=O)(=O)O)cc2)cc(C(=O)Nc2ccc(S(=O)(=O)O)cc2)c1"
class_assignment = "FALSE"

[[record]]
compound = "CCCN1CCC(=O)N(C(CSc2ccc(OC)cc2)Cc2ccccc2)CC1 (centres undefined)"
class_assignment = "FALSE"

[[record]]
compound = "Cc1cs/c(=N\\N=C\\c2ccc(O)cc2)n1Cc1ccco1"
class_assignment = "FALSE"

[[record]]
compound = "COCCNC(=O)/C(C#N)=C/c1cccc(OCc2ccccc2)c1"
class_assignment = "FALSE"

[[record]]
compound = "O=C(NCc1ccccn1)c1cc(Br)ccc1Cl"
class_assignment = "FALSE"

[[record]]
compound = "CCc1nnc(NC(=O)c2cccc(S(=O)(=O)N(C)c3ccc(OC)cc3)c2)s1"
class_assignment = "FALSE"

[[record]]
compound = "COc1ccc(NC(=O)COc2ccc(C(=O)OCC(=O)N(C)C3CCS(=O)(=O)C3)cc2OC)cc1 (centres undefined)"
class_assignment = "FALSE"

[[record]]
compound = "C=C1CCN(Cc2ccc(OC)cc2)S(=O)(=O)c2ccccc21"
class_assignment = "FALSE"

[[record]]
compound = "O=c1cc(-c2ccc(O)cc2)oc2c([C@@H]3O[C@H](CO)[C@@H](O)[C@H](O)[C@H]3O)c(O)cc(O)c12"
class_assignment = "FALSE"

[[record]]
compound = "CCCCCOC(=O)NCCOC(=O)Nc1ccc(C(=O)OCC)cc1"
class_assignment = "FALSE"

[[record]]
compound = "Cc1cc(=O)[nH]c(SCC(=O)Nc2ccc(Br)cc2)n1"
class_assignment = "FALSE"

[[record]]
compound = "Cc1ccc(NC(=O)CSc2nc(CSc3ccc(C)cc3)cc(=O)[nH]2)cc1"
class_assignment = "FALSE"

[[record]]
compound = "O=C(NCc1ccccn1)c1cc(-c2ccccc2Cl)on1"
class_assignment = "FALSE"

[[record]]
compound = "O=C(CSc1ccc(-c2ccco2)nn1)NCc1ccc2c(c1)OCO2"
class_assignment = "TRUE"

[[record]]
compound = "O=[N+]([O-])c1cccc(Nc2c3ccccc3nc3ccccc23)c1"
class_assignment = "FALSE"

[[record]]
compound = "c1ccc(C2CNCc3c2ccc2ccccc32)cc1 (centres undefined)"
class_assignment = "FALSE"

[[record]]
compound = "O=c1c(O)c(Br)ccc2c(Br)c(O)c(O)c(O)c12"
class_assignment = "TRUE"

[[record]]
compound = "CCOc1ccccc1/C=c1\\sc2nc(-c3ccco3)nn2c1=O"
class_assignment = "FALSE"

[[record]]
compound = "COCCNC(=O)Nc1ccc2nc(-c3ccco3)c(-c3ccco3)nc2c1"
class_assignment = "TRUE"

